# Tested on: RARb:RXRa (NR concentration 270 nM, RXRa partner concentration 90 nM)
# ASSAY_COMMENT: PBM binding z-score (relative to random genomic background probes); higher = stronger binding; sequences stand for … in GC…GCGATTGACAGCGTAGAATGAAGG
Reported PBM binding z-score by item:

Field: example entries. Status: answers known.
{"SEQUENCE_CHAIN": "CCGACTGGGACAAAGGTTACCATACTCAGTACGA", "PBM binding z-score": 2.03}
{"SEQUENCE_CHAIN": "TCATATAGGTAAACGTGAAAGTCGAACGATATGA", "PBM binding z-score": 0.3}
{"SEQUENCE_CHAIN": "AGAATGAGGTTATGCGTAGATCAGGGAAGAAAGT", "PBM binding z-score": 1.57}

// query What PBM binding z-score value was documented for this sequence, "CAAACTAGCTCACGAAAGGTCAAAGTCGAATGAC" ?
// result 4.4
